# assayedTarget: Recombinant human KAT6B protein (657-1069) (Homo sapiens (Human))
# protocolText: KAT6B biochemical TR-FRET assay
# runParameters: histone H4 peptide 1000 nM, AcCoA 100 nM, enzyme 5 nM
metric: IC50

The following molecules have reported results that may help.
| smilesRecord | IC50 |
| --- | --- |
| COc1ccc(C(C)(C)C)cc1S(=O)(=O)NC(=O)c1ccc(Cn2cccn2)c(C2CC2)c1 | ≤ 5 nM |
| COc1cc(C(=O)NS(=O)(=O)c2cc(C3(OC)CC3)ccc2OC)ccc1Cn1cccn1 | ≤ 5 nM |
| COc1cc2c(cc1S(=O)(=O)NC(=O)c1ccc(Cn3cccn3)c(OC)n1)C(C)(C)CO2 | ≤ 5 nM |
| [2H]C([2H])([2H])Oc1nc(C(=O)NS(=O)(=O)c2c(OC)ccc3c2OC(C)(C)C3)ccc1Cn1cccn1 | ≤ 5 nM |
| COc1ccc(C(C)(C)C)cc1S(=O)(=O)NC(=O)c1ccc(Cn2cccn2)c(OC)n1 | ≤ 5 nM |

Query `COc1ccc(C(C)(C)C)cc1S(=O)(=O)NC(=O)c1ccc(Cc2ccccn2)c(C)n1` yields IC50 of ≤ 5 nM

The measured IC50 associated with `COc1ccc(C2(C)CCC2)cc1S(=O)(=O)NC(=O)c1ccc(Cn2cccn2)c(OC)n1` reads ≤ 5 nM

* * *

# assayedTarget: Recombinant human KAT6B protein (657-1069) (Homo sapiens (Human))
# protocolText: KAT6B biochemical TR-FRET assay
# runParameters: histone H4 peptide 1000 nM, AcCoA 100 nM, enzyme 5 nM
pIC50: −log10 of the molar value.
Listed below: pIC50 values for each entry.

Solved cases below.
| molecule | pIC50 |
| --- | --- |
| COc1ccc(C(C)(C)C)cc1S(=O)(=O)NC(=O)c1ccc(Cn2cccn2)c(Br)c1 [Example C14] | ≥ 8.30 |
| COc1ccc2c(c1S(=O)(=O)NC(=O)c1ccc(Cn3cccn3)c(OC)n1)OC(C)(C)C2 [Example C42] | ≥ 8.30 |
| COc1cc(C(=O)NS(=O)(=O)c2nc(C(C)(C)C)ccc2OC)ccc1Cn1cccn1 [Example C27] | ≥ 8.30 |
| COc1ccc(C2(C)COC2)cc1S(=O)(=O)NC(=O)c1ccc(Cn2cccn2)c(OC)n1 [Example C75] | ≥ 8.30 |

Lab note: measured pIC50 of COc1ccc(C(C)(C)C)cc1S(=O)(=O)NC(=O)c1ccc(Cn2cccn2)c(Br)c1F [Example C11] was ≥ 8.30

Documented pIC50 of CCc1cc(C(=O)NS(=O)(=O)c2cc(C(C)(C)C)ccc2OC)ccc1Cn1cccn1 [Example C6] : ≥ 8.30

* * *

# assayedTarget: Recombinant human KAT6B protein (657-1069) (Homo sapiens (Human), UniProt Q8WYB5)
# Sequence (Q8WYB5 657-1069): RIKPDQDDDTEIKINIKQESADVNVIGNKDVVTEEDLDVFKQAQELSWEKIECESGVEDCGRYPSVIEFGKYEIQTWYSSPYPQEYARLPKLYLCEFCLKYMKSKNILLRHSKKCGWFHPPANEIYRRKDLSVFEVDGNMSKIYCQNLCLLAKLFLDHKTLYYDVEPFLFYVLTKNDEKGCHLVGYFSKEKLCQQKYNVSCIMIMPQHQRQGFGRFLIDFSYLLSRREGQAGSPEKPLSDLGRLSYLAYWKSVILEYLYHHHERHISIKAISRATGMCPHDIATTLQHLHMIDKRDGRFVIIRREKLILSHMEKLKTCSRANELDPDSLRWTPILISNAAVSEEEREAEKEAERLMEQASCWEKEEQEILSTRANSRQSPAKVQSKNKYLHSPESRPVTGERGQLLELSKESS
# protocolText: KAT6B biochemical TR-FRET assay
# runParameters: histone H4 peptide 1000 nM, AcCoA 100 nM, enzyme 5 nM
Overview of recorded IC50 for various compounds

Worked examples follow.
| compound | assayedTarget | metric | experimentalValue |
| --- | --- | --- | --- |
| COc1ccc(C(C)(C)C)cc1S(=O)(=O)NC(=O)c1ccc(Cn2cccn2)c(C)c1 [Example C3] | Recombinant human KAT6B protein (657-1069) (Homo sapiens (Human), UniProt Q8WYB5) | IC50 | ≤ 5 nM |
| COc1ccc2c(c1S(=O)(=O)NC(=O)c1ccc(Cn3cccn3)c(OC)n1)OC1CC2C1 [Example C78] | Recombinant human KAT6B protein (657-1069) (Homo sapiens (Human), UniProt Q8WYB5) | IC50 | ≤ 5 nM |

Okay, next one:
Reported IC50 of CCOc1nc(C(=O)NS(=O)(=O)c2nc(C(C)(C)C)ccc2OC)ccc1Cn1cccn1 [Example C34] : ≤ 5 nM
